Tested on: Plasmodium falciparum
protocol: GSK_TCMDC: Inhibition of Plasmodium falciparum Dd2 in whole red blood cells, using parasite LDH activity as an index of growth. Test compounds present at 2uM
Assay type: functional
endpoint.name: Inhibition (%)
Give bare numbers, in %.

compound: Cl.N#Cc1ccc2c(c1)CN(CCC1CCC(NC(=O)c3cc4cnccc4[nH]3)CC1)CC2 (centres undefined)
result.units: %
Inhibition: 28

Please supply Inhibition for each of the following items, keeping them in order.
1. CCOC(=O)C1=C(C)N=c2sc(=Cc3ccccc3O)c(=O)n2C1c1ccc(OC)c2ccccc12 (centres undefined)
2. COc1cccc(-c2nn(C)c3sc(C(=O)Nc4cccnc4)cc23)c1
3. COc1c(C2CCN(CCN3CCC(CNC(=O)c4ccc(-c5ccc(C#N)cc5)cc4)CC3)CC2)ccc2c1CCCC2
4. O=C(NC1CC1)c1cnc(N2CCCC(c3ccccc3)C2)c(Cl)c1.O=C(O)C(F)(F)F (centres undefined)

Result:
[38, 34, 100, 94]

Please supply Inhibition for each of the following items, keeping them in order.
1. Cc1nc(C)c(-c2ccc(Sc3ccc(Cl)cc3)cc2)c(O)c1Br
2. O=C(/C=C/c1ccc(Cl)c(Cl)c1)NCCCCCN1CCC(CCNC(=O)/C=C/c2ccc(Cl)c(Cl)c2)CC1
3. Cc1nc2ccc(-c3ccc(OC(F)(F)F)cc3)cc2c(O)c1C#N
4. CCCCc1ccc(-c2ccc(-c3c(C)[nH]c(C)c(Br)c3=O)cn2)cc1.Cl

Result:
1: 97; 2: 56; 3: 97; 4: 96
